- MEASURED TARGET: mTORC1 (mTOR/GbL/Raptor) (Homo sapiens, UniProt P42345)
- TEST METHOD NOTES: mTOR/GbL/Raptor (mTORC1) ELISA Assay
- Assay type: biochemical
- EXPERIMENTAL SETUP: 0.2 nM mTORC1, 10 μM ATP, 50 nM NHis-tagged 4E-BP1; phosphorylation of 4E-BP1; read-out: IC50
pIC50: −log10 of the molar value.
OUTCOME MEASURE: pIC50

MOLECULE: Cc1nc2ccc(-c3ccc4c(c3)CN(C(=O)N3CCC5CCCCC5C3)CCO4)cc2[nH]1 (stereo not shown) [Compound 156]
OUTCOME MEASURE: pIC50
OBSERVED: 6.60 to 7.30
--
MOLECULE: Cc1nc2ccc(-c3ccc4c(c3)CN(C(=O)N3CCCC[C@H]3c3ccccc3)CCO4)cc2[nH]1 [Compound 65]
OUTCOME MEASURE: pIC50
OBSERVED: ≥ 7.30
--
MOLECULE: Cc1nc2ccc(-c3ccc4c(c3)CN(C(=O)N3CCCCC3c3ccc(F)c(F)c3)CCO4)cc2[nH]1 (stereo not shown) [Compound 114]
OUTCOME MEASURE: pIC50
OBSERVED: ≥ 7.30
--
MOLECULE: CC(=O)Nc1nc2ccc(-c3ccc4c(c3)CN(C(=O)N3CCC(CF)CC3)CCO4)cc2[nH]1 [Compound 50]
OUTCOME MEASURE: pIC50
OBSERVED: 6.15 to 6.60
--
MOLECULE: COC(=O)Nc1nc2ccc(-c3ccc4c(c3)CN(C(=O)N3CCC(O)(c5cccc(C(F)(F)F)c5)CC3)CCO4)cc2[nH]1 [Compound 18]
OUTCOME MEASURE: pIC50
OBSERVED: 6.60 to 7.30
--
MOLECULE: CCNc1nc2ccc(-c3ccc4c(c3)CN(C(=O)N3CCC(C(C)(F)F)CC3)CCO4)cc2[nH]1 [Compound 33]
OUTCOME MEASURE: pIC50
OBSERVED: ≥ 7.30
--
MOLECULE: COC(=O)Nc1nc2cc(-c3ccc4c(c3)CN(C(=O)N3CC[C@H](O)C[C@@H]3c3ccc(F)cc3)CCO4)ccc2[nH]1 (racemic) [Compound 17]
OUTCOME MEASURE: pIC50
OBSERVED: 5.59 to 6.15

Source of measurements: patent US8637499B2
